meta.source: the NIST ThermoML archive (doi:10.1016/j.tca.2014.06.031)

measurement notes: refractive index (Na D-line) (dimensionless)
test parameters: 298.15 K; 101.33 kPa; Liquid; Standard Abbe refractometry
± gives the expanded uncertainty stated by the source.
test readout: refractive index

- CCOC(=O)OCC [diethyl carbonate]: 1.38249 ± 0.00051
- CCCCCCC(=O)O: 1.42138 ± 0.00037
- CCCC(=O)O: 1.3963 ± 0.00037
- CCCCC(=O)O: 1.40641 ± 0.00051
- CCO: 1.35945 ± 0.00051
